# MEASURED TARGET: GOPC, Q9HD26
# ASSAY INFO: holdup assay
# Parameters: key: below the threshold = too weak to quantify, mostly under pKd 3.1 to 4
# CONDITION CONTEXT: plain residues with an end cap or a label only (N-terminal biotin on a linker: ttds)
Collected pKd values appear next to each entry.
METRIC: pKd

SRPQRTQTQV [HPV67-E6, A4U7F2]    3.58
RSLEEEESQL [GRASP, Q7Z6J2]    4.01
SVWLRKETRV [CYSLTR2, Q9NS75]    4.27
